# System: α-smooth muscle actin (α-SMA) mRNA
# Measurement Protocol: Anti-remodelling activity in human lung fibroblasts (HFL1): TGFβ-induced α-SMA mRNA (Assay 4)
# Assay type: cell-based
# Run Conditions: Homo sapiens; 3 μM; HFL1 cells, TGFβ 10 ng/ml, 24 h; read-out: Inhibition of α-SMA mRNA synthesis (%)
# Procedure: A human foetal lung fibroblast cell line (HFL1 cells; ATCC accession number CCl-153) was used in this assay. The cells were cultured in medium containing a low level of foetal bovine serum (FBS; 0.1%) for 24 h. […] The level of mRNA coding for α-smooth muscle actin (α-SMA) was assessed by real-time reverse transcription-polymerase chain reaction (rtRT-PCR) using primer couples that allow the amplification of α-SMA mRNA. […]
Measured inhibition at 3 µM, listed per entry.
Entry rule: numbers only, all in %.

Compound	Reading
COc1cc(CCC(=O)CC(=O)C(C)(C)c2ccccc2)ccc1O [Compound 31]	34
COc1cc(CCC(=O)CC(=O)C2(C)CC2)ccc1O [Compound 6]	-12
COc1cc(CCC(=O)CC(=O)c2ccc(F)cc2)ccc1O [Compound 20]	-8
COc1cc(CCC(=O)CC(=O)C(c2ccccc2)c2ccccc2)ccc1O [Compound 30]	84
COc1cc(CCC(=O)CC(=O)c2ccc(C(C)(C)C)cc2)ccc1O [Compound 83]	-2
COc1cc(CCC(=O)CC(=O)c2ccc(C)cc2)ccc1O [Compound 80]	4
COc1cc(CCC(=O)CC(=O)c2ccc(Cl)cc2)ccc1O [Compound 21]	6
COc1cc(CCC(=O)CC(=O)Cc2cccc3ccccc23)ccc1O [Compound 29]	33
COc1cc(CCC(=O)CC(=O)c2cccc3ccccc23)ccc1O [Compound 27]	6
COc1cc(CCC(=O)CC(=O)c2ccc(-c3ccccc3)cc2)ccc1O [Compound 18]	13

Requested read-out: inhibition at 3 µM. Entry: COc1cc(CCC(=O)CC(=O)c2ccc(O)c(OC)c2)ccc1O [Compound 15]
13

Repeat for the following compound: COc1cc(CCC(=O)C(C)(C)C(=O)C(C)(C)C)ccc1O [Compound 71]
-1

Repeat for the following compound: COc1cc(CCC(=O)CC(=O)C(C)(C)C)ccc1O [Compound 2]
5

Repeat for the following compound: COc1cc(CCC(=O)C(C)C(=O)c2ccc(O)c(OC)c2)ccc1O (stereo not shown) [Compound 16]
-8

The measurements presented in this section are drawn from patent US7589123B2.
